The reported measurements were obtained from the supplement of paper PMC10567573.

B1: TRIM43 (parent)
chain: FCDMDKSLLCLLCSNSQEHGAHKH

variants of: B1; assay: protein stability index of a GFP-peptide fusion (GPS, HEK-293T) (PSI 1-6); higher = more stable; settings: c terminus: a fixed tail appended;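 note: lentivirally expressed fusions sorted by FACS into six bins by GFP to DsRed ratio, PSI derived from sequencing read proportions per bin multiplied by bin number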
Give protein stability index for every item shown.
Form field (numeric): enter value without unit.

Identify measured protein stability index associated with "S16H" 2

Identify measured protein stability index associated with "N15S" 2.07

Identify measured protein stability index associated with "D5R" 1.74

Identify measured protein stability index associated with "L12C" 2.56

Identify measured protein stability index associated with "C2Q" 2.43

Identify measured protein stability index associated with "M4Q" 1.88

Identify measured protein stability index associated with "N15R" 2.1

Identify measured protein stability index associated with "G20H" 1.92

Identify measured protein stability index associated with "C2N" 2.58

Identify measured protein stability index associated with "G20E" 2.36

Identify measured protein stability index associated with "A21N" 1.84

Identify measured protein stability index associated with "M4P" 2

Identify measured protein stability index associated with "C2A" 1.54

Identify measured protein stability index associated with "H19W" 1.51

Identify measured protein stability index associated with "G20D" 2.19

Identify measured protein stability index associated with "L11T" 2.51

Identify measured protein stability index associated with "L9N" 2.52

Identify measured protein stability index associated with "H22Y" 1.87

Identify measured protein stability index associated with "G20I" 1.66

Identify measured protein stability index associated with "K6Y" 2.17

Identify measured protein stability index associated with "S7K" 1.92

Identify measured protein stability index associated with "S14V" 1.71

Identify measured protein stability index associated with "M4W" 2.13

Identify measured protein stability index associated with "F1D" 3.56

Identify measured protein stability index associated with "G20V" 2.35

Identify measured protein stability index associated with "A21E" 1.83

Identify measured protein stability index associated with "Q17Y" 2.19

Identify measured protein stability index associated with "D3Y" 2.48

Identify measured protein stability index associated with "G20Y" 2.28

Identify measured protein stability index associated with "G20A" 1.89

Identify measured protein stability index associated with "E18I" 1.4

Identify measured protein stability index associated with "L11P" 1.83

Identify measured protein stability index associated with "S14D" 1.72

Identify measured protein stability index associated with "E18R" 1.86

Identify measured protein stability index associated with "Q17G" 1.84

Identify measured protein stability index associated with "C13F" 1.89

Identify measured protein stability index associated with "M4S" 2.19
